Measurement protocol: antimalarial activity against Dd2 strain (AID 2302);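 note: 0% = DMSO untreated growth and 100% = chloroquine plus artemisinin killed control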
Run conditions: P. falciparum Dd2 in RBCs, LDH growth readout, 72 h; at 2 µM; stronger effect = higher value
Answer each item with its documented growth inhibition.
Give the value, in units of %, as a plain number.

Lab note: measured growth inhibition of N=c1n(CCN2CCCC2)c2ccccc2n1CC(O)c1ccc(Cl)c(Cl)c1 (stereo not given) was 6

Form: compound = `Cc1cc(N)nc2ccc(-c3ccc(CN)cc3)cc12` ; growth inhibition = 93

# compound `COc1ccc(CCNc2nc(NCc3ccccc3)c3cc(OC)c(OC)cc3n2)cc1OC` ; its growth inhibition = 91

The reported growth inhibition of the compound `COc1ccc(NC(=O)[C@H](Cc2ccccc2)Nc2cc(C)nc(NCCc3ccc(F)cc3)n2)cc1` was 82

// field: growth inhibition; key: `COC(=O)c1cccc(CNCc2cccc(-c3cccc(-c4nc5ccccc5[nH]4)c3)c2)c1` ; value = 58

###

Measurement protocol: inhibition of 3D7 malaria parasite growth – strain 3D7 (AID 2306);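 note: 0% = DMSO wells and 100% = chloroquine plus artemisinin control wells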
Run conditions: P. falciparum 3D7 erythrocytic growth, LDH absorbance, 72 h; at 2 µM; stronger effect = higher value
For each record, write down the corresponding growth inhibition.
// note: answer is a bare numeric in %

The value of growth inhibition measured for the molecule `CN1CCC(NCc2cccc(-c3ccc(S(=O)(=O)NCCc4ccccn4)cc3)c2)CC1` turned out to be 95

The recorded growth inhibition for `CNCc1cccc(-c2ccc3ccnc(N)c3c2)c1` is 101

The reported value for Cc1ccccc1C(O)CNc1ccnc(Nc2cccc(C#N)c2)n1 (stereo not given) in terms of growth inhibition is 94

Recorded result, `Cc1cccc2[nH]c(-c3cccc(-c4ccc(NC(=O)c5cnccc5C(F)(F)F)cc4)c3)nc12` , growth inhibition: 100

Record `CS(=O)(=O)c1ccc(CCNCc2ccc(-c3ccc(CNC4Cc5ccccc5C4)cc3)nc2)cc1` , field growth inhibition: 100

So for `Cn1nc(C(F)(F)F)c(-c2ccc(F)cc2)c1NC(=O)Nc1ccc(F)cc1` , the logged growth inhibition turned out to be 100

The molecule identified as COc1ccc2c(c1)CC1CN(CCCCNC(=O)c3ccc(NC(=O)c4cc(Cl)cc(Cl)c4)cc3)CCN1C2 (stereo not given) registered its growth inhibition at 101

The molecule identified as CCCN(CCC)CC(O)COc1ccccc1C(=O)Nc1ccccc1 (stereo not given) registered its growth inhibition at 92

Lab book: growth inhibition of CCC1CN2CCc3c([nH]c4ccccc34)C2CC1CC1=NCCc2c1[nH]c1ccccc21 (stereo not given) noted as 100

growth inhibition reading for `NC(=O)c1cccc(Nc2nccc(Nc3ccc(Oc4c(Cl)cccc4Cl)c(Cl)c3)n2)c1` : 93

###

Measured target: L-lactate dehydrogenase (Plasmodium falciparum (isolate CDC / Honduras)) (UniProt Q27743)
Sequence (Q27743 whole entry, looked up): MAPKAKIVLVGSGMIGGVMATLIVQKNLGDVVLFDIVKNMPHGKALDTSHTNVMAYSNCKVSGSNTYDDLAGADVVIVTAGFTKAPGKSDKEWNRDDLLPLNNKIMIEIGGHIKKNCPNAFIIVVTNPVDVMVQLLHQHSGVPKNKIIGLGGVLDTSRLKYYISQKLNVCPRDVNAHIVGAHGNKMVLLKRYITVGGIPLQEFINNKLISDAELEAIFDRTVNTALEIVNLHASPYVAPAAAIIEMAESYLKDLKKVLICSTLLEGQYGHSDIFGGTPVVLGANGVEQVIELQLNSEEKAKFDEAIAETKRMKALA
Measurement protocol: PfLDH activity inhibition – cell lysate, 3D7 strain, counter-screen for P. falciparum growth inhibition project (AID 2304);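 note: 0% = vehicle and 100% = reference inhibitor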
Run conditions: P. falciparum 3D7 crude extract, LDH APAD/NBT absorbance; at 2 µM; stronger effect = higher value
Kindly supply the reported inhibition values for the records listed here.
Please reply with the bare figure in % and do not write the unit itself.

`Nc1ncc(-c2ccsc2)cc1-c1nc2ccccc2[nH]1` yielded inhibition of -2

For reference, reported inhibition for `COc1cc(Cc2cnc(N)nc2N)cc(OC(C)C)c1OC` stands at 0

GET /value?item= `CS(=O)(=O)c1ccc(CNCc2ccc(-c3cccc(-c4nc5ccccc5[nH]4)c3)cc2)cc1` &field=inhibition returns -7

# inhibition of `CCOC(=O)c1[nH]c(-c2ccccc2)nc1-n1nc(C)cc1C` = 2

Sure, the documented inhibition for `Cc1ccc(-c2ccc3c(c2)C=C(C(=O)NCC2CCN(CC4CCN(C(=O)/C=C/c5ccc(Cl)c(Cl)c5)CC4)CC2)CCC3)cc1` is -7

The reported value for Cc1ccccc1C1CCN(C2CCC(NC(=O)/C=C/c3ccc(F)cc3)CC2)CC1 (centres undefined) in terms of inhibition is -2

Briefly, inhibition measured for `O=C(Nc1ccc2ccccc2c1)c1ccc(CN2CCC(Cc3ccccc3)CC2)cc1` : -8

Sample `O=C(Nc1cccc(CN2CCCN(CC3CCCCC3)CC2)c1)c1cc2ccccc2s1` ; inhibition observed: 0

The compound identified as `CCN(CC)CCCN(CCCN(CC)CC)c1cc(C)nc(Nc2ccc(Cl)cc2)n1` registered its inhibition at 2

Note to self: inhibition recorded for CCCNC(=O)C1Cc2cc(OC)c(OC)cc2C2(N1)C(=O)N(Cc1cccc(OC)c1)c1ccccc12 (centres undefined) was 3

inhibition in this record for COc1ccc(NC(=O)C2c3ccccc3C(=O)N(C3CCCC3)C2c2cccs2)cc1OC (centres undefined) : -2

Record summary for `COc1cccc(CN2CCC3(CC2)CN(C(=O)Nc2ccc(Cl)c(Cl)c2)C3)c1` : reported inhibition = 2

Please fill in: inhibition reported for CCC[C@@H]([C@@H](CC1CCC(C)CC1)C(=O)N[C@@H](CCCNc1ncccn1)C(=O)Nc1nccs1)N(O)C=O (some centres undefined) = 5

// recorded inhibition for `CN1CCN(c2ccnc3ccc(NC(=O)Nc4c(Cl)cccc4Cl)cc23)CC1` : -1

inhibition measured on `CN1CCC(NCc2cccc(-c3ccc(S(=O)(=O)NCc4ccccc4)cc3)c2)CC1` = 0

Kindly note the recorded inhibition for `CCN(CC)CCn1c(=N)n(CC(=O)c2ccc(-c3ccccc3)cc2)c2ccccc21` , which is 0

Reported inhibition for `CC(C)Cn1cc(C2CCN(CCN3CCC(CNC(=O)c4ccc(-c5ccc(C#N)cc5)cc4)CC3)CC2)c2ccccc21` was 8

inhibition recorded for this compound, `O=C(Nc1ccc(I)cc1)Nc1ccc(Cn2ncc(N3CCCNCC3)c(Cl)c2=O)cc1` , is 0

For record `CCCN1CCN(Cc2ccc(-c3ccc(-c4nc5ccccc5[nH]4)s3)cc2)CC1` the listed inhibition is 5
